Listed molecules paired with reported MRT
- PROTOCOL_TEXT: Mean residence time in rat at 5 mg/kg, iv dosed as solution in PEG400/EtOH
- Assay type: ADME, organism-based
- Set-up: dose 5 mg/kg, route intravenous
- APPLIED_CONDITIONS: in vivo
Reply with the number, then its unit.

[[record]]
structure = "O=C(C(=O)N1CCN(C(=O)c2ccccc2)CC1)c1c[nH]c2ccccc12"
measure = "MRT"
reported_measurement = "26 min"


Attention now shifts to the item below.
Query :: Find the recorded MRT belonging to O=C(C(=O)N1CCN(C(=O)c2ccccc2)CC1)c1c[nH]c2cccc(F)c12 and report it.
Result :: 21 min
